# Tested on: NCI-H522 lung
# method: NCI tumour cell line growth inhibition, 48 h
observed_property: TGI (µM)

[[record]]
molecule = "O=C(c1cccnc1)N1N=C(c2ccccc2)CC1(O)c1cc(F)c(Cl)cc1Cl (stereo unspecified)"
system_under_test = "NCI-H522 lung"
relation_qualifier = ">"
experimental_value = 100

[[record]]
molecule = "C=CCC1(C(=O)OC(C)(C)C)C(OC)=C(C(=O)OC(C)(C)C)C2C1C(C(=O)OC(C)(C)C)=C(OC)C2(CC=C)C(=O)OC(C)(C)C (stereo unspecified)"
system_under_test = "NCI-H522 lung"
relation_qualifier = ">"
experimental_value = 100

[[record]]
molecule = "C/C=C(\\C)C(=O)O[C@@H]1CC(C)(C)CC2C3=CCC4[C@]56CC[C@](O)(OC5)C(C)(C)C6CC[C@@]4(C)C3(C)CC[C@]21C(=O)O (stereo partly specified)"
system_under_test = "NCI-H522 lung"
relation_qualifier = ">"
experimental_value = 100

[[record]]
molecule = "COC(=O)[C@@H](C)[C@H]1CC[C@@](C)(CCC2=C(C)CC3C=C(C)CCC3C2(C)C)OO1 (stereo partly specified)"
system_under_test = "NCI-H522 lung"
relation_qualifier = "="
experimental_value = 0.331

[[record]]
molecule = "C[C@]12CC[C@H]3[C@@H](CC4SC(N)=NC45C/C(=N/NC(N)=O)CC[C@]35C)[C@@H]1CCC2=O (stereo partly specified)"
system_under_test = "NCI-H522 lung"
relation_qualifier = "="
experimental_value = 4.06

[[record]]
molecule = "O=C(C#Cc1ccccc1)C1=Cc2ccccc2OC1"
system_under_test = "NCI-H522 lung"
relation_qualifier = "="
experimental_value = 3.42


----------
# Test system: EKVX NSCLC
# method: NCI tumour cell line growth inhibition, 48 h
observed_property: TGI

[[record]]
molecule = "CCC(CC)(CO)CNc1cc(Cl)nc(N)n1"
observed_property = "TGI"
experimental_value = "> 100 µM"

[[record]]
molecule = "C=CCC1(C(=O)OC(C)(C)C)C(OC)=C(C(=O)OC(C)(C)C)C2C1C(C(=O)OC(C)(C)C)=C(OC)C2(CC=C)C(=O)OC(C)(C)C (centres undefined)"
observed_property = "TGI"
experimental_value = "> 100 µM"

[[record]]
molecule = "Cc1cc2c(cc1C)C(=O)C1(C2)Cc2cc3c(cc2C1=O)CCC3 (centres undefined)"
observed_property = "TGI"
experimental_value = "> 100 µM"

[[record]]
molecule = "Cc1cc(S(=O)(=O)Nc2nncn2-c2ccc(Cl)cc2)c(S)cc1Cl"
observed_property = "TGI"
experimental_value = "> 10 µM"


----------
# Tested on: T-47D breast
# method: NCI tumour cell line growth inhibition, 48 h
observed_property: TGI

[[record]]
compound = "CC(=O)OC12c3ccccc3-c3ccccc3C1C(C(=O)O)C2C(=O)O (stereo not given)"
observed_property = "TGI"
experimental_value = "> 10 µM"

[[record]]
compound = "CCOC(=O)C(=CNC(=S)N=Nc1c(O)[nH]c2ccccc12)C(=O)OCC"
observed_property = "TGI"
experimental_value = "> 100 µM"

[[record]]
compound = "COC(=O)C1=C(C(=O)OC)C(N(C)C)C(C(=O)OC)=C(C(=O)OC)S1"
observed_property = "TGI"
experimental_value = "> 100 µM"

[[record]]
compound = "COc1ccc(NC(C(N)=O)c2cc3cc(Br)ccc3nc2Cl)cc1 (stereo not given)"
observed_property = "TGI"
experimental_value = "> 100 µM"

[[record]]
compound = "C=CCOC(=O)N1c2ccc(O)cc2[C@@]23O[C@@]24[C@@H]1C#C/C=C\\C#C[C@]3(O)C(OC)(OC)C[C@@H]4C"
observed_property = "TGI"
experimental_value = "> 100 µM"


----------
Consider the following molecules and their measured TGI readings.
# System: UO-31 renal
# method: NCI tumour cell line growth inhibition, 48 h
*1 amine or outer side, *2 acyl side, *3 side chain or, on linkers, in order; H or OH if unused. Where a SMILES comes first, the peptide text is derived from it. Bridges are numbered along the chain shown (N, C = ends). Roman numbers before positions name the chains, in order. [ ]: non-standard residue; d: D form. Actinocin(9to1) = Cc1c2oc3c(C)ccc(C(=O)[*:1])c3nc-2c(C(=O)[*:2])c(N)c1=O; Hyp = O=C(O)[CH]1C[CH](O)CN1; NMeV = CN[CH](C(=O)O)C(C)C; Sar = CNCC(=O)O
observed_property: TGI (µM)

[[record]]
molecule = "COc1cc(OC)c(OC)cc1/C=C/c1cnnc2ccccc12"
display_unit = "µM"
relation_qualifier = ">"
experimental_value = 10

[[record]]
molecule = "CC(=O)OC12c3ccccc3-c3ccccc3C1C(C(=O)O)C2C(=O)O (centres undefined)"
display_unit = "µM"
relation_qualifier = ">"
experimental_value = 10

[[record]]
molecule = "Cc1c2oc3c(C)ccc(C(=O)NC4C(=O)NC(C(C)C)C(=O)N5CC(O)CC5C(=O)N(C)CC(=O)N(C)C(C(C)C)C(=O)OC4C)c3nc-2c(C(=O)NC2C(=O)NC(C(C)C)C(=O)N3CC(O)CC3C(=O)N(C)CC(=O)N(C)C(C(C)C)C(=O)OC2C)c(N)c1=O (centres undefined) (I: TV[Hyp][Sar][NMeV] / II: TV[Hyp][Sar][NMeV]; ester I:1-I:C, II:1-II:C; linker I:N-II:N via Actinocin(9to1); configuration not given here)"
display_unit = "µM"
relation_qualifier = ">"
experimental_value = 1

[[record]]
molecule = "CCCCCCCC(=O)SCC/C=C/[C@@H]1CC(=O)NCc2nc(cs2)C2=N[C@@](C)(CS2)C(=O)N[C@@H](C(C)C)C(=O)N1"
display_unit = "µM"
relation_qualifier = "="
experimental_value = 21.2

[[record]]
molecule = "C[C@H]1COCCN1c1cc(C2(S(=O)(=O)C3CC3)CC2)nc(-c2ccc(NC(=S)NCCO)cc2)n1"
display_unit = "µM"
relation_qualifier = "="
experimental_value = 0.524

[[record]]
molecule = "Cc1cc2c(c(S(=O)(=O)c3ccccc3[N+](=O)[O-])c1)NCCC2"
display_unit = "µM"
relation_qualifier = ">"
experimental_value = 100

[[record]]
molecule = "COc1ccc(/C(C#N)=C/c2cc(OC)c(OC)c(OC)c2)cc1"
display_unit = "µM"
relation_qualifier = "="
experimental_value = 68.8

[[record]]
molecule = "COc1ccc(/C=C2\\SC(=Nc3ccccc3)NC2=O)cc1"
display_unit = "µM"
relation_qualifier = ">"
experimental_value = 100

[[record]]
molecule = "CN(C)CCNC(=O)c1cccc2nc3c(C(=O)NCCN(C)C)cccc3nc12"
display_unit = "µM"
relation_qualifier = "="
experimental_value = 34.1

[[record]]
molecule = "N#Cc1cc(Sc2ccc(N)c(C#N)c2)ccc1N"
display_unit = "µM"
relation_qualifier = ">"
experimental_value = 100

[[record]]
molecule = "COC(=O)c1c2c(c(C)[n+]([O-])c1C)C(=O)C=C(NCc1cccc(Cl)c1)C2=O"
display_unit = "µM"
relation_qualifier = "="
experimental_value = 2.35

[[record]]
molecule = "Cc1cccc(C)c1N1C(=O)C(=O)C(c2nc3ccccc3s2)/C(=N/NC(=O)c2ccccc2O)C1=O (centres undefined)"
display_unit = "µM"
relation_qualifier = "="
experimental_value = 22.4

[[record]]
molecule = "CCCCCCCCCCCCCCCCCCNC(=S)/N=C/c1c(O)c2ccccc2[nH]c1=O"
display_unit = "µM"
relation_qualifier = "="
experimental_value = 32.6

[[record]]
molecule = "O=c1c2cnccc2cc2c3ccccc3ccn12"
display_unit = "µM"
relation_qualifier = ">"
experimental_value = 100

[[record]]
molecule = "COc1cc(C2C3=C(CCCC3=O)N(c3ccc(C)cc3)C3=C2C(=O)CCC3)c([N+](=O)[O-])cc1OC"
display_unit = "µM"
relation_qualifier = ">"
experimental_value = 100

[[record]]
molecule = "Cc1nc2c(cc1OCc1ccccc1)C(=O)C1=C(C2=O)C2OC(=O)CC2OC1(C)C (centres undefined)"
display_unit = "µM"
relation_qualifier = "="
experimental_value = 3.24

[[record]]
molecule = "COc1cc(Cc2cnc(N)nc2N)cc(OC)c1OCCCNc1ccc([N+](=O)[O-])cc1"
display_unit = "µM"
relation_qualifier = "="
experimental_value = 26.5

[[record]]
molecule = "COc1cc2c(cc1OC)C1Cc3ccc(OC)c(OC)c3C[N+]1([O-])CC2 (centres undefined)"
display_unit = "µM"
relation_qualifier = ">"
experimental_value = 100

[[record]]
molecule = "CCOC(=O)C12C(C(=O)OC)=C(C)N(NC(=O)Nc3ccccc3)C1(N)N(NC(=O)Nc1ccccc1)C(C)=C2C(=O)OC (centres undefined)"
display_unit = "µM"
relation_qualifier = ">"
experimental_value = 100

[[record]]
molecule = "N/N=C(\\c1nc2ccc(Cl)cc2[nH]c1=O)C(O)c1ccc(Cl)c(Cl)c1 (centres undefined)"
display_unit = "µM"
relation_qualifier = ">"
experimental_value = 100

[[record]]
molecule = "CN(C)CCCC1(c2ccc(F)cc2)OCc2cc(-c3cc4ccccc4s3)ccc21 (centres undefined)"
display_unit = "µM"
relation_qualifier = "="
experimental_value = 2.49

[[record]]
molecule = "C=CCN1/C(=C2\\SC(=S)N(c3ccc(C)cc3)C2=O)Sc2c1ncn(C)c2=O"
display_unit = "µM"
relation_qualifier = ">"
experimental_value = 100

[[record]]
molecule = "Cc1nc2ccc(F)cc2c(Cl)c1CCCl"
display_unit = "µM"
relation_qualifier = ">"
experimental_value = 100

[[record]]
molecule = "CCOC(=O)[C@@]1(C)CC(O)C(=O)N1C (some centres undefined)"
display_unit = "µM"
relation_qualifier = ">"
experimental_value = 100

